Biological target: T1, recombinant human cardiac troponin T (human, UniProt P45379 2-298)
T1 construct: In the ECL assay the cTnT came from the Troponin T hs CalSet calibrator; also called cTnT; TnT
Assay: SPR (Biacore T200, 37 C), Fab captured, cTnT analyte
Quick reference: kon of the listed items.
measure-name: kon (M⁻¹ s⁻¹)

binder="anti-cTnT Fab mutant 8 (Y34F, V101Y + Y104F) (Fab, V domains shown, also called combination 8) VH: EVQLQQSGPELVKPGASVKMSCKASGYTFTDYFMKWVKQSHGKSLEWIGDINPNNGETFYNQKFKDKATLTVDKSSSTAYMQLNSLTSEDSAVYYCATRYFDFWGQGTTLTVSS VL: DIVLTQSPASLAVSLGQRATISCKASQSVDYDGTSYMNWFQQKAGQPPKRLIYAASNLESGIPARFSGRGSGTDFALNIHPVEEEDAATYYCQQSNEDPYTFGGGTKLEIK" measured_value=2.7e+06
binder="anti-cTnT Fab mutant 19 (Y104F) (Fab, V domains shown, also called combination 19) VH: EVQLQQSGPELVKPGASVKMSCKASGYTFTDYYMKWVKQSHGKSLEWIGDINPNNGETFYNQKFKDKATLTVDKSSSTAYMQLNSLTSEDSAVYYCATRVFDFWGQGTTLTVSS VL: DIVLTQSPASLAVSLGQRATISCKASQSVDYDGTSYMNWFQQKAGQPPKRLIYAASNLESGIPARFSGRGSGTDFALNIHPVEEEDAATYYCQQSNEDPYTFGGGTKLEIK" measured_value=2.9e+06
binder="anti-cTnT Fab mutant 1 (Y34F) (Fab, V domains shown, also called combination 1) VH: EVQLQQSGPELVKPGASVKMSCKASGYTFTDYFMKWVKQSHGKSLEWIGDINPNNGETFYNQKFKDKATLTVDKSSSTAYMQLNSLTSEDSAVYYCATRVFDYWGQGTTLTVSS VL: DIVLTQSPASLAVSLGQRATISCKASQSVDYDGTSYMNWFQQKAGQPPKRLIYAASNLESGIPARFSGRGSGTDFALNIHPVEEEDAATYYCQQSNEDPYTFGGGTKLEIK" measured_value=2.3e+06
